Target: acid ceramidase (Homo sapiens, UniProt Q13510)
Construct: Cell lysates overexpressing acid ceramidase were used as the enzyme source; expressed in transfected cells
Sequence (Q13510 22-395): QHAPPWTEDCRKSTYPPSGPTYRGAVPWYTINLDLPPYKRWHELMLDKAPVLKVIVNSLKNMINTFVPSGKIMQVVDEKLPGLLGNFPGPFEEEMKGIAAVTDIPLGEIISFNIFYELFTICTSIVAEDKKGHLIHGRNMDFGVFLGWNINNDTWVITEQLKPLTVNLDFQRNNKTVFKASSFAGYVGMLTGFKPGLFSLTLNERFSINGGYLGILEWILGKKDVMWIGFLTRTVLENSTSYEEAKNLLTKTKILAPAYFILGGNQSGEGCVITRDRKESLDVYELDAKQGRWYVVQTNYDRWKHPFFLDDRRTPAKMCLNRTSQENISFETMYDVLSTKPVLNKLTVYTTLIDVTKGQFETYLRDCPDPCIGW
Assay: Acid ceramidase inhibition, biochemical fluorescent assay with cell lysates overexpressing acid ceramidase, substrate Rbm14-12
Settings: substrate Rbm14-12 6.3 μM, pH 4.5, 1 hr preincubation at RT
pIC50: −log10 of the molar value.
Collected pIC50 values appear next to each entry.

molecule | pIC50
O=C(NCCc1ccccc1)n1cnc2cc(-c3cncnc3)ccc21 [Example 8a] | > 6.70
CN1CCC(c2cc3c(cc2Cl)ncn3C(=O)NCCc2ccccc2)CC1 [Example 11a] | > 6.70
CCCCNC(=O)n1cnc2ccc(F)cc21 [Example 69] | 6.00 to 6.70

Readout pIC50 for COc1ccccc1C#CCNC(=O)n1cnc2c(N3CCN(C)CC3)cccc21 [Example 341] , test system acid ceramidase (Homo sapiens, UniProt Q13510), was > 6.70

Readout pIC50 for COc1nc2cccnc2n1C(=O)NCCCCn1ccc(C(C)(C)C)n1 [Example 135a] , test system acid ceramidase (Homo sapiens, UniProt Q13510), was > 6.70

Readout pIC50 for CC(C)CCNC(=O)n1cnc2c(C3CCN(C)CC3)cc(Cl)cc21 [Example 112b] , test system acid ceramidase (Homo sapiens, UniProt Q13510), was 6.00 to 6.70

Readout pIC50 for COc1nc2cc(N3CCOCC3)ccc2n1C(=O)NCCCCc1ccccc1 [Example 133b] , test system acid ceramidase (Homo sapiens, UniProt Q13510), was > 6.70

Readout pIC50 for CC(C)C#CCNC(=O)n1cnc2c(N3CC4(CCN4C)C3)cccc21 [Example 359] , test system acid ceramidase (Homo sapiens, UniProt Q13510), was 6.00 to 6.70

Readout pIC50 for O=C(NCCc1ccccc1)n1c(OC2CC2)nc2ccccc21 [Example 34] , test system acid ceramidase (Homo sapiens, UniProt Q13510), was > 6.70
